- test_details: NCI Yeast Anticancer Drug Screen. Data for the rad50 strain (AID 155);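 note: 0% = growth of vehicle-only cultures of the same strain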
- experimental_conditions: S. cerevisiae rad50 strain growth inhibition; at 50.0 µM
The panel holds about 79,000 compounds, 15% with a hit somewhere; the sample as a whole holds those more often. The source made the active and inactive calls. Cut-off read from the data, not from the text of the source: active = growth inhibition above about 70%; inactive = the rest.
Classes used: 1 (yes) (active), 0 (no) (inactive)

record_smiles | group_label
ClCc1cccc2c(CCl)cccc12 | 0 (no)
COC(=O)c1ccc([N+](=O)[O-])c(C)c1 | 0 (no)
CN(CCCN(C)CCC1CCCCC1)CCC1CCCCC1 | 0 (no)
N#C/C(=C\c1ccc2c(c1)OCO2)c1ccccc1 | 0 (no)
CNc1ccccc1C(N)=O | 0 (no)
CCOC(=O)C(COS(C)(=O)=O)(COS(C)(=O)=O)C(=O)OCC | 0 (no)
Nc1c(Br)cc(O)c2c1C(=O)c1ccccc1C2=O | 0 (no)
CCCCCCCCCc1ccc(OC(C)=O)cc1 | 1 (yes)
Cc1cccc(-[n+]2noc(N)n2)c1 | 0 (no)
COc1cc(C(=O)O)c(O)c(C(C)(C)C)c1 | 0 (no)
CC(C)c1ccccc1NC(=O)N1CCC(C(C)C)CC1 | 0 (no)

###

growth inhibition by entry:
- test_details: NCI Yeast Anticancer Drug Screen. Data for the mec2-1 strain (AID 157)
- experimental_conditions: S. cerevisiae mec2-1 strain, at 50.0 µM, active compounds read high
This is part of a sample that, as a whole, favours compounds with a hit. Of some 79,000 tested, about 15% had one in any assay.

molecule | growth inhibition, %
CC1CCC(C(C)(C)[N+](C)(C)C)CC1 (centres undefined) | 17.6
CCOC(=O)/C(C#N)=C\c1c[nH]c2ccccc12 | 23.9
COC1CC(OC(=O)c2ccc([N+](=O)[O-])cc2)C(COC(=O)c2ccc([N+](=O)[O-])cc2)O1 (centres undefined) | 20.8
Cc1ccc(O)c(N)c1 | -12.5

###

The following molecules are listed with their measured growth inhibition values.
- test_details: NCI Yeast Anticancer Drug Screen. Data for the sgs1 mgt1 strain (AID 161);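 note: 0% = growth of cultures given vehicle only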
- experimental_conditions: S. cerevisiae sgs1 mgt1 strain, at 50.0 µM, active compounds read high
The panel holds about 79,000 compounds, 15% with a hit somewhere; the sample as a whole holds those more often.

molecule | growth inhibition / %
NNC(=O)c1ccccc1N | 27.1
Cc1cc(C(=O)NN)c(C#N)c(=O)[nH]1 | -2.15
O=C(NCc1ccccc1)/C(=C/c1ccccc1)NC(=O)c1ccccc1 | -33.9
C(=C\c1ccncc1)/c1ccncc1 | 6.45
OCC(O)COc1ccc(Cl)cc1Cl (configuration not stated) | 25.8
Clc1ccc(/C=C/c2ccccn2)cc1 | 9.3
CCC(/C=C\C(C)=O)CC | -27.6
O=C(c1ccccc1)c1ccc(-c2ccc(O)cc2)cc1 | 24.9
Cc1ccc2[nH]c3ccccc3c2c1 | 22.9
CC(C)OCC(CCl)OC(=O)Nc1ccccc1 (configuration not stated) | 27.4
NC(CCl)=NCC12CC3CC(CC(C3)C1)C2 | 48.8
CCCCCC#CC(=O)O | -8.05
Nc1ccccc1SC1CC(=O)N(c2ccc(Cl)c(Cl)c2)C1=O (configuration not stated) | 4.7
Cc1ccc(S(=O)(=O)Oc2ccc3sc4c(CO)ccc(NCCN(C)C)c4c(=O)c3c2)cc1 | 12.2
CSc1cnc2ccccc2n1 | -10.6
Cc1cc(Nc2ccc3c(c2)OCO3)c2cc3c(cc2n1)OCO3 | -14.9
Nc1ccc(F)cc1F | -3.7
Cc1cc(Cc2ccccc2)c(O)c(Cc2ccccc2)c1 | 32
CC(=O)/C(C)=N\OC(=O)Nc1ccccc1 | -2.65
COc1ccc2c(Cl)cc(NC(=O)Nc3c(C)cccc3C)nc2c1 | 13.9
CC(=O)C1C(=O)C(=O)N(c2cccc([N+](=O)[O-])c2)C1=O (configuration not stated) | -8.75
OCCc1ccc(Cl)cc1 | 9.7
